All figures here come from patent US8318719B2.

# System: B cell receptor-mediated activation of B cells in human blood
# MEASUREMENT NOTES: Inhibition of B cell activation in whole blood measured by CD69 expression
# Assay type: cell-based
# SETUP CONDITIONS: anti-IgM stimulation 20 h, concentration decreasing by 50% the percentage of CD69-positive cells that are also CD20-positive
READOUT TYPE: IC50 (nM)

[P] CN1CCN(c2ccc(Nc3cc(-c4cccc(N5CCOc6cc(C(C)(C)C)ccc6C5=O)c4CO)cn(C)c3=O)nc2)CC1
[Q] Cn1cc(-c2cccc(N3CCNc4cc(C5CC5)ccc4C3=O)c2CO)cc(Nc2ccc(N3CCOCC3)cn2)c1=O
[R] Cn1cc(-c2cccc(N3CCOc4cc(C(C)(C)C)ccc4C3=O)c2CO)cc(Nc2ccc(C(=O)N3CCOCC3)cn2)c1=O
## Input Which order do the items above take when sorted by IC50 from high to low? // format: requested-order list of labels
## Output Q, R, P
(Q: 96 nM, R: 16 nM, P: 4 nM)
